- Tgt: HLA-A02.01 (human)
- Assay Explanation: pMHC-I complex dissociation at 37 C, 125I-b2m, half-life
Experimental Endpoint: Stability (T1/2 (h))
Quick reminder: number only, in h, skip the unit.

As a guide, the following entries are already answered.
>  <Binder>
VLLSVHLIV (also called APC, AVEW)

>  <Experimental Endpoint>
Stability (T1/2 (h))

>  <Result Unit>
h

>  <Reported>
11

$$$$
>  <Binder>
LIMQLMPFGC (also called EGFR, T790M)

>  <Experimental Endpoint>
Stability (T1/2 (h))

>  <Result Unit>
h

>  <Reported>
0.4

$$$$

Just so you know, measured Stability (T1/2 (h)) for NVVPLYGLL (also called ESR1, D538G) came out at 0

Lab note: LQMDFLVHPA (likely a print error; also called APC, VHPA) […] gave Stability (T1/2 (h)) of 1.5

Record summary for KLSDSRTAL (also called FRG1B, I1OT (so in the source); FRG1B, I10T) : reported Stability (T1/2 (h)) = 2.8

Per the record, TQISSATEYL (also called ABL1, M351T) has Stability (T1/2 (h)) of 0

Looking up VLTVTSTDV (also called FGFR3: TACC3) , I found its Stability (T1/2 (h)) recorded as 1.1

Reported Stability (T1/2 (h)) for GVYTFLPST (also called ESR1, S463P) was 1.3

binder PLCDLLLEM (also called ESR1, Y537C) , Stability (T1/2 (h)) observed: 0.8

Summary for this binder, KVLQMDFLV (also called APC, VHPA) : Stability (T1/2 (h)) is 6.4

Recorded result, IIIEFMTYGN (also called ABL1, T315I) , Stability (T1/2 (h)): 0

The binder listed as PLSDLLLEML (also called E5R1, Y537S (so in the source); ESR1, Y537S) has a reported Stability (T1/2 (h)) of 0

# binder FILMELMAGG (also called ALK, L1196M) ; its Stability (T1/2 (h)) = 0

So, VVPLSDLLL (also called ESR1, Y537S) ? Its Stability (T1/2 (h)) was 0

Reported Stability (T1/2 (h)) ( IIIEFMTYG (also called ABL1, T315I) ) = 0

Please fill in: Stability (T1/2 (h)) reported for YIIIEFMTYG (also called ABL1, T315I) = 0
